Reference source for all entries: patent US10293024

Target: 6His-MAP kinase p38α (human)
Sequence (chain, as listed by the source): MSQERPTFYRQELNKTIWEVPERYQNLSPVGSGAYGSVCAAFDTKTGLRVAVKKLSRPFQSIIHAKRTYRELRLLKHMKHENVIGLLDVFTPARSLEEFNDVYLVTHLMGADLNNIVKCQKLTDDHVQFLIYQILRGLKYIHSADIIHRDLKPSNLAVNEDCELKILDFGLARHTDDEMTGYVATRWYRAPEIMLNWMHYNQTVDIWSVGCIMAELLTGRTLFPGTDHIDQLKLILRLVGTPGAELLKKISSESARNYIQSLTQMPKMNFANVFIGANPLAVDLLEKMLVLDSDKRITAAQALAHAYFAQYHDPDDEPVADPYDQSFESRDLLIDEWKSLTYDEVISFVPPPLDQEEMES
Experiment: other, NMR titration 298K
Kindly supply the reported Kd values for the records listed here.

### Prompt Item RKPDLRVVIPPSS [MEF2A peptide] has what recorded Kd?
### Response ~250 µM

### Prompt Item HKSRALLIFQKIMWLRRQ [BB2702] has what recorded Kd?
### Response < 1 µM
